- ASSAY_NAME: enzyme kinetic measurements with purified protein
- Type: biochemical
- MEASUREMENT_CONTEXT: 0-1280 uM substrate, read-out: Km Quizalofop-P
OBSERVABLE: Km (µM)

| MOLECULE | OBSERVABLE | OBSERVED_MEASUREMENT |
| --- | --- | --- |
| MON-HT53: engineered oxygenase protein, amino acid sequence SEQ ID NO:7 (protein) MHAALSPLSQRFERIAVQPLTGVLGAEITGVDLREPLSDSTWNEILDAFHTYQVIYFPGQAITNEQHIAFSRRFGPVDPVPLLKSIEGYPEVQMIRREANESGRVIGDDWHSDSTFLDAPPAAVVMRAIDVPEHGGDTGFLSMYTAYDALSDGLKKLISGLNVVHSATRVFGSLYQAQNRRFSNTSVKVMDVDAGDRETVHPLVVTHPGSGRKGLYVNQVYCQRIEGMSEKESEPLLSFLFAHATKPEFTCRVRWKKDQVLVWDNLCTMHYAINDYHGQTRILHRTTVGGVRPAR | Km | 690 |
| MON-HT52: engineered oxygenase protein, amino acid sequence SEQ ID NO:4 (protein) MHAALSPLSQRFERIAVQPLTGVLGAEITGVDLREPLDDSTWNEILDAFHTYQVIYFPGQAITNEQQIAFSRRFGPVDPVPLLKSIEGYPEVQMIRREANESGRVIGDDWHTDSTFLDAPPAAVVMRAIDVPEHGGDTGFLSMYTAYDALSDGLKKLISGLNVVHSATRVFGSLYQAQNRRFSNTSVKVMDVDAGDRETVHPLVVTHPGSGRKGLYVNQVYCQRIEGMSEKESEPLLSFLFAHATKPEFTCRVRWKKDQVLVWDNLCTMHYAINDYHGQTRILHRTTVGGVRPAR | Km | 420 |
